# test.method.notes: Selectivity index, ratio of IC50 for human ARPE19 cells to IC50 for human HCT116 cells
# Type: toxicity
# condition: ARPE19 cells versus HCT116 cells, read-out: Ratio IC50
Catalogue of selectivity ratio values

| sample.smiles | selectivity ratio |
| --- | --- |
| COc1cccc(C(=N)Nc2cc(C(=O)Nc3cc(C(=O)Nc4cc(C(=O)NCCCN(C)C)n(C)c4)n(C)c3)n(C)c2)c1 | > 1.77 |
| CC(=O)Nc1cc(C(=O)Nc2cc(C(=O)Nc3cc(C(=O)NCCCN(C)C)n(C)c3)n(C)c2)n(C)c1 | > 1 |
| CN(C)CCCNC(=O)c1cc(NC(=O)c2cc(NC(=O)c3cc(NC(=N)c4ccccc4)cn3C)cn2C)cn1C | > 1 |

As a next step, examine the molecule that follows.
Looking up `CC(=O)Nc1cc(C(=O)Nc2cc(C(=O)Nc3nc(C(=O)NCCCN(C)C)c(CCC(C)C)s3)n(C)c2)n(C)c1` , I found its selectivity ratio recorded as > 1
